tested on: H929 (multiple myeloma); assay: Cell proliferation inhibition, Cell Titer-Glo, H929; format: cell-based; conditions: Homo sapiens, NCI-H929; cell proliferation assay, H929 cells
pIC50: −log10 of the molar value.
Property measured: pIC50

Could you share what pIC50 was measured for CN1CCC(N2Cc3cc4nc(-c5c(N[C@@H](CO)Cc6ccccc6)cc[nH]c5=O)[nH]c4cc3C2=O)CC1 , tested on H929 (multiple myeloma)?
4.82 to 5.30

Notebook: pull reported pIC50 for H929 (multiple myeloma), entry Cc1ccc(OC[C@H](O)CNc2cc[nH]c(=O)c2-c2nc3cc4c(cc3[nH]2)C(=O)N(CCCN2CCCC2)C4=O)c2c1CCC2
< 4.82

Quick check: pIC50 on H929 (multiple myeloma), item CN1CCC(N2Cc3cc4nc(-c5c(NC[C@@H](O)COc6cccc(C(F)(F)F)c6Cl)cc[nH]c5=O)[nH]c4cc3C2=O)CC1 ?
4.82 to 5.30

Find pIC50 (H929 (multiple myeloma)) for the entry COc1cc(C#N)ccc1OC[C@H](O)CNc1ccnc(O)c1-c1nc2cc3c(cc2[nH]1)C(=O)N(C1CCN(C)CC1)C3=O
4.82 to 5.30

Request - read-out pIC50 | tested on H929 (multiple myeloma) | compound Cc1c(Cl)cccc1OC[C@H](O)CNc1cc[nH]c(=O)c1-c1nc2cc3c(cc2[nH]1)C(=O)N(CC(C)(C)CN(C)C)C3=O
< 4.82

# get_value(readout= pIC50, system= H929 (multiple myeloma)) for Cc1ncsc1CCN1C(=O)c2cc3nc(-c4c(NC[C@@H](O)c5cccc(Cl)c5)cc[nH]c4=O)[nH]c3cc2C1=O
4.82 to 5.30

Where do the numbers come from? From patent US8063225B2.
